Catalogue of logP[a] values
- Protocol Details: log P by HPLC (OECD Guideline 117), method [a] acidic range
- Type: physicochemical
- Measurement Parameters: HPLC, method [a] acidic range
Just the number.

Below, each entry is followed by its recorded logP[a] result.
CCCCOC1=CC(=O)N(c2cc([S+]([O-])CC(F)(F)F)c(C)cc2F)C1 (stereo not shown) [Example 326]; 2.91
Cc1cc(F)c(-n2nc(SC(C)C)n(C)c2=O)cc1[S+]([O-])CC(F)(F)F (stereo not shown) [Example 275]; 2.73
COc1nn(-c2cc([S+]([O-])CC(F)(F)F)c(C)cc2F)c(=O)n1C1CC1 (single isomer, unassigned) [Example 379]; 2.14

--- query ---
Give logP[a] for the following compound: COc1cc(F)c(-n2nc(OCC(C)(C)C)n(C3CC3)c2=O)cc1SCC(F)(F)F [Example 395]
4.38

----------
Catalogue of logP[b] values
- Protocol Details: log P by HPLC (OECD Guideline 117), method [b] neutral range
- Format: physicochemical
- Measurement Parameters: HPLC, method [b] neutral range
Just the number.

Below, each entry is followed by its recorded logP[b] result.
COCc1nn(-c2cc(SCC(F)(F)F)c(C)cc2F)c(=O)n1C1CC1 [Example 46]; 2.90
Cc1cc(F)c(-n2nc(OCC(C)(C)C)n(C)c2=O)cc1[S+]([O-])CC(F)(F)F (centres unmarked) [Example 165]; 3.15
Cc1cc(F)c(-n2ncn(-c3ccc(F)cc3)c2=O)cc1SCC(F)(F)F [Example 349]; 3.40
CCc1nn(-c2cc(SCC(F)(F)F)c(C)cc2F)c(=O)n1-c1cccnc1 [Example 348]; 2.87
COc1nn(-c2cc([S+]([O-])CC(F)(F)F)c(C)cc2F)c(=O)n1C(C)C (centres unmarked) [Example 413]; 2.40

Give logP[b] for the following compound: CCn1c([S+]([O-])CC)nn(-c2cc([S+]([O-])CC(F)(F)F)c(C)cc2F)c1=O (centres unmarked) [Example 252]
1.87

Give logP[b] for the following compound: COCCCn1c(OC)nn(-c2cc(SCC(F)(F)F)c(C)cc2F)c1=O [Example 388]
3.15

Give logP[b] for the following compound: CCCCc1nn(-c2cc(SCC(F)(F)F)c(C)cc2F)c(=S)n1C1CC1 [Example 495]
4.43

----------
- Protocol Details: log P by HPLC (OECD Guideline 117), method [a] acidic range
- Type: physicochemical
- Measurement Parameters: pH 2.7, log P[a]
- Procedure: The log P values were determined analogously to OECD Guideline 117 (EC Directive 92/69/EEC) by HPLC (high-performance liquid chromatography) using reversed-phase columns (C 18), by the following methods: [a] The LC-MS determination in the acidic range is effected at pH 2.7 with 0.1% aqueous formic acid and acetonitrile (contains 0.1% formic acid) as eluents; linear gradient from 10% acetonitrile to 95% acetonitrile.
Readout Name: chromatographic logP
Just the number.

Give chromatographic logP for the following compound: N#Cc1cc(F)c(-n2nc(C(F)(F)F)n(C3CC3)c2=O)cc1F [XXIV-1]
2.91

----------
Catalogue of logP[a] values
- Protocol Details: log P by HPLC (OECD Guideline 117), method [a] acidic range
- Format: physicochemical
- Measurement Parameters: HPLC, method [a] acidic range

Below, each entry is followed by its recorded logP[a] result.
COc1nn(-c2cc(SCC(F)(F)F)c(Cl)cc2F)c(=O)n1C1CC1; 3.32
C=CCSc1nn(-c2cc([S+]([O-])CC(F)(F)F)c(C)cc2F)c(=O)n1CC=C (stereo not shown); 2.94
Cc1cc(F)c(-n2nc(C3CCC3)n(C3CC3)c2=O)cc1SCC(F)(F)F; 3.85

--- query ---
Give logP[a] for the following compound: Cc1cc(F)c(-n2nc(OC(C)C)n(C)c2=O)cc1[S+]([O-])CC(F)(F)F (stereo not shown)
2.48

FYI, the data here is from patent US9981940B2.
